Give measured MIC for each item. Keep answers brief.
Tested on: N. gonorrhoeae ATCC 49226
Test: Liquid broth MIC in Fastidious broth
Details: Neisseria gonorrhoeae, ATCC49226, read-out: Minimum Inhibitory Concentration (MIC), N. gonorrhoeae ATCC 49226

Identify measured MIC associated with O=C(CN1CCN(C(=O)N[C@@H](C(=O)N[C@H]2Cc3ccc(F)c(C(=O)O)c3OB2O)c2cc(F)c(O)c(O)c2Cl)C(=O)C1=O)NCc1ccncc1 [Example 239]
16 to 32 µg/mL

Identify measured MIC associated with CN(CCN1CCN(C(=O)NC(C(=O)N[C@H]2Cc3ccc(F)c(C(=O)O)c3OB2O)c2cc(F)c(O)c(O)c2Cl)C(=O)C1=O)S(=O)(=O)c1cccc(C(N)=O)c1 (stereo partly drawn) [Example 224]
16 to 32 µg/mL

Identify measured MIC associated with Nc1ncc(C(=O)N[C@@H](C(=O)N[C@H]2Cc3cccc(C(=O)O)c3OB2O)c2ccc(P(=O)(O)O)cc2)s1 (racemic) [Example 50]
4 to 8 µg/mL

Identify measured MIC associated with O=C(O)c1cccc2c1OB(O)[C@@H](NC(=O)[C@H](NC(=O)c1cnc3n(c1=O)CCS3)c1ccc(P(=O)(O)O)cc1)C2 (single isomer, unassigned) [Example 197]
16 to 32 µg/mL

Identify measured MIC associated with O=C1CC[C@@H](C(=O)NC(C(=O)N[C@H]2Cc3cccc(C(=O)O)c3OB2O)c2ccc(P(=O)(O)O)cc2)N1 (stereo partly drawn) [Example 64]
4 to 8 µg/mL

Identify measured MIC associated with CS(=O)(=O)N1CCC[C@@H]1C(=O)N[C@@H](C(=O)N[C@H]1Cc2cccc(C(=O)O)c2OB1O)c1ccc(P(=O)(O)O)cc1 [Example 35]
1 to 2 µg/mL

* * *

Tested on: N. gonorrhoeae WHO G
Assay: Liquid broth MIC in Fastidious broth
Settings: Neisseria gonorrhoeae, read-out: Minimum Inhibitory Concentration (MIC), N. gonorrhoeae WHO G
observable: MIC

Identify measured MIC obtained with N. gonorrhoeae WHO G for `O=C(O)c1cccc2c1OB(O)[C@@H](NC(=O)[C@H](NC(=O)N1CCCCC1=O)c1ccc(P(=O)(O)O)cc1)C2` .
< 1 µg/mL

Identify measured MIC obtained with N. gonorrhoeae WHO G for O=C(O)c1c(F)ccc2c1OB(O)[C@@H](NC(=O)C(NC(=O)N1CCN(Cc3ccc(O)c(O)c3Cl)C1=O)c1ccc(P(=O)(O)O)cc1)C2 (stereo partly drawn) .
< 1 µg/mL

Identify measured MIC obtained with N. gonorrhoeae WHO G for O=C(CN1CCN(C(=O)NC(C(=O)N[C@H]2Cc3ccc(F)c(C(=O)O)c3OB2O)c2cc(F)c(O)c(O)c2Cl)C(=O)C1=O)Nc1cccc(O)c1 (stereo partly drawn) .
4 to 8 µg/mL

* * *

Test system: A. baumannii CDC-0036
Assay: microbe, parasite or virus in culture
Type: cell-based
Settings: Acinetobacter baumannii, CDC0036, read-out: MIC, A. baumannii CDC-0036
Give measured MIC for each item. Keep answers brief.

Identify measured MIC associated with O=C(NCCCN1CCN(C(=O)N[C@@H](C(=O)N[C@H]2Cc3ccc(F)c(C(=O)O)c3OB2O)c2cc(F)c(O)c(O)c2Cl)C(=O)C1=O)c1ccncc1O [Example 296]
< 1 mg/L

Identify measured MIC associated with O=C(NCCN1CCN(C(=O)NC(C(=O)N[C@H]2Cc3ccc(F)c(C(=O)O)c3OB2O)c2cc(F)c(O)c(O)c2Cl)C1=O)c1ccncc1 (some centres unmarked) [Example 245]
2 to 4 mg/L

Identify measured MIC associated with O=C(NCCCN1CCN(C(=O)N[C@@H](C(=O)N[C@H]2Cc3ccc(F)c(C(=O)O)c3OB2O)c2cc(F)c(O)c(O)c2Cl)C1=O)c1cccc(O)c1 [Example 255]
< 1 mg/L

Identify measured MIC associated with Cc1cc(C(=O)NCCCN2CCN(C(=O)N[C@@H](C(=O)N[C@H]3Cc4ccc(F)c(C(=O)O)c4OB3O)c3cc(F)c(O)c(O)c3Cl)C(=O)C2=O)ccn1 [Example 298]
< 1 mg/L

Identify measured MIC associated with O=C(O)c1c(F)ccc2c1OB(O)[C@@H](NC(=O)C(NC(=O)N1CCN(C3CCN(S(=O)(=O)c4cccc(O)c4)CC3)C(=O)C1=O)c1cc(F)c(O)c(O)c1Cl)C2 (some centres unmarked) [Example 428]
2 to 4 mg/L

* * *

Give measured MIC for each item. Keep answers brief.
System: A. baumannii CDC-0045
Assay: microbe, parasite or virus in culture
Type: cell-based
Details: Acinetobacter baumannii, CDC0045, read-out: MIC, A. baumannii CDC-0045

Identify measured MIC associated with O=C(NCCCS(=O)(=O)N1CCN(C(=O)NC(C(=O)N[C@H]2Cc3ccc(F)c(C(=O)O)c3OB2O)c2cc(F)c(O)c(O)c2Cl)C1=O)c1ccccc1 (stereo partly drawn) [Example 268]
2 to 4 µg/mL

Identify measured MIC associated with O=C(NCCN1CCN(C(=O)NC(C(=O)N[C@H]2Cc3ccc(F)c(C(=O)O)c3OB2O)c2cc(F)c(O)c(O)c2Cl)C1=O)Nc1cccc(O)c1 (stereo partly drawn) [Example 249]
< 1 µg/mL

Identify measured MIC associated with CS(=O)(=O)N1CCN(C(=O)N[C@@H](C(=O)N[C@H]2Cc3ccc(F)c(C(=O)O)c3OB2O)c2ccc(P(=O)(O)O)c(F)c2)C1=O (single isomer, unassigned) [Example 19]
> 128 µg/mL

* * *

System: A. baumannii CDC-0036
Test: microbe, parasite or virus in culture
Format: cell-based
Settings: Acinetobacter baumannii, CDC0036, read-out: MIC, A. baumannii CDC-0036
observable: MIC

Identify measured MIC associated with O=C(O)c1c(F)ccc2c1OB(O)[C@@H](NC(=O)C(NC(=O)N1CCN(C3CCN(C(=O)Nc4ccc(F)c(O)c4F)CC3)C1=O)c1cc(F)c(O)c(O)c1Cl)C2 (some centres unmarked)
2 to 4 µg/mL

Identify measured MIC associated with Cc1cnccc1C(=O)NCCCN1CCN(C(=O)NC(C(=O)N[C@H]2Cc3ccc(F)c(C(=O)O)c3OB2O)c2cc(F)c(O)c(O)c2Cl)C(=O)C1=O (some centres unmarked)
2 to 4 µg/mL

Identify measured MIC associated with `O=C(NCCS(=O)(=O)N1CCN(C(=O)N[C@@H](C(=O)N[C@H]2Cc3ccc(F)c(C(=O)O)c3OB2O)c2cc(F)c(O)c(O)c2Cl)C1=O)Nc1ccncc1`
2 to 4 µg/mL

Identify measured MIC associated with O=C(NCCS(=O)(=O)N1CCN(C(=O)N[C@@H](C(=O)N[C@H]2Cc3ccc(F)c(C(=O)O)c3OB2O)c2ccc(P(=O)(O)O)cc2)C1=O)c1ccc(O)c(O)c1Cl (single isomer, unassigned)
2 to 4 µg/mL

Identify measured MIC associated with O=C(NCCS(=O)(=O)N1CCN(C(=O)NC(C(=O)N[C@H]2Cc3ccc(F)c(C(=O)O)c3OB2O)c2cc(F)c(O)c(O)c2Cl)C1=O)c1cccc(O)c1 (some centres unmarked)
2 to 4 µg/mL

* * *

System: P. aeruginosa CDC-0090
Assay: microbe, parasite or virus in culture
Assay type: cell-based
Details: Pseudomonas aeruginosa, CDC0090, read-out: Minimum inhibitory concentration, P. aeruginosa CDC-0090
Give measured MIC for each item. Keep answers brief.

Identify measured MIC associated with O=C(O)c1c(F)ccc2c1OB(O)[C@@H](NC(=O)C(NC(=O)N1CCN(C3CCN(C(=O)c4ccc(O)cc4O)CC3)C(=O)C1=O)c1cc(F)c(O)c(O)c1Cl)C2 (stereo partly drawn) [Example 476]
< 1 mg/L

Identify measured MIC associated with O=C(NCCS(=O)(=O)N1CCN(C(=O)N[C@@H](C(=O)N[C@H]2Cc3ccc(F)c(C(=O)O)c3OB2O)c2cc(F)c(O)c(O)c2Cl)C1=O)Nc1cccnc1 [Example 267]
2 to 4 mg/L

Identify measured MIC associated with O=C(O)c1c(F)ccc2c1OB(O)[C@@H](NC(=O)[C@H](NC(=O)N1CCN(C3CCN(C(=O)Nc4cccc(O)c4)CC3)C1=O)c1cc(F)c(O)c(O)c1Cl)C2 [Example 445]
< 1 mg/L

Identify measured MIC associated with O=C(NCCCS(=O)(=O)N1CCN(C(=O)NC(C(=O)N[C@H]2Cc3ccc(F)c(C(=O)O)c3OB2O)c2cc(F)c(O)c(O)c2Cl)C1=O)Nc1cccc(O)c1 (stereo partly drawn) [Example 277]
2 to 4 mg/L

Identify measured MIC associated with O=C(NCCCN1CCN(C(=O)NC(C(=O)N[C@H]2Cc3ccc(F)c(C(=O)O)c3OB2O)c2cc(F)c(O)c(O)c2Cl)C(=O)C1=O)c1c(F)cncc1F (stereo partly drawn) [Example 402]
< 1 mg/L

Identify measured MIC associated with O=C(O)c1c(F)ccc2c1OB(O)[C@@H](NC(=O)[C@H](NC(=O)N1CCN(C3CCN(C(=O)c4cc(O)c(O)c(Cl)c4)CC3)C1=O)c1ccc(P(=O)(O)O)cc1)C2 [Example 496]
< 1 mg/L

Identify measured MIC associated with O=C(O)c1c(F)ccc2c1OB(O)[C@@H](NC(=O)[C@H](NC(=O)N1CCN(C3CCN(Cc4cccnc4)CC3)C1=O)c1cc(F)c(O)c(O)c1Cl)C2 [Example 492]
< 1 mg/L

Identify measured MIC associated with O=C(O)c1cccc2c1OB(O)[C@@H](NC(=O)[C@H](NC(=O)N1CCN(S(=O)(=O)c3ccc(O)c(O)c3Cl)C1=O)c1ccc(P(=O)(O)O)cc1)C2 [Example 509]
< 1 mg/L

Identify measured MIC associated with O=C(NCCCN1CCN(C(=O)N[C@@H](C(=O)N[C@H]2Cc3ccc(F)c(C(=O)O)c3OB2O)c2cc(F)c(O)c(O)c2Cl)C(=O)C1=O)c1ccncc1O [Example 296]
< 1 mg/L

Identify measured MIC associated with O=C(NCCS(=O)(=O)N1CCN(C(=O)N[C@H](C(=O)N[C@H]2Cc3ccc(F)c(C(=O)O)c3OB2O)c2cc(F)c(O)c(O)c2Cl)C1=O)c1ccc(O)cc1 [Example 286]
> 128 mg/L

Identify measured MIC associated with O=C(NCCCN1CCN(C(=O)N[C@@H](C(=O)N[C@H]2Cc3ccc(F)c(C(=O)O)c3OB2O)c2cc(F)c(O)c(O)c2Cl)C(=O)C1=O)c1cccnc1 [Example 210]
< 1 mg/L

Identify measured MIC associated with O=C(NCCCN1CCN(C(=O)NC(C(=O)N[C@H]2Cc3ccc(F)c(C(=O)O)c3OB2O)c2cc(F)c(O)c(O)c2Cl)C(=O)C1=O)c1cccc(O)c1F (stereo partly drawn) [Example 406]
< 1 mg/L

Identify measured MIC associated with O=C(NCCCN1CCN(C(=O)N[C@@H](C(=O)N[C@H]2Cc3ccc(F)c(C(=O)O)c3OB2O)c2cc(F)c(O)c(O)c2Cl)C1=O)Nc1cccc(O)c1 [Example 258]
< 1 mg/L

Identify measured MIC associated with O=C(NCCN1CCN(C(=O)NC(C(=O)N[C@H]2Cc3ccc(F)c(C(=O)O)c3OB2O)c2cc(F)c(O)c(O)c2Cl)C1=O)c1ccccc1 (stereo partly drawn) [Example 242]
< 1 mg/L

Identify measured MIC associated with O=C(O)c1c(F)ccc2c1OB(O)[C@@H](NC(=O)[C@H](NC(=O)N1CCN(C3CCN(C(=O)Nc4cc(O)cc(F)c4)CC3)C1=O)c1cc(F)c(O)c(O)c1Cl)C2 (single isomer, unassigned) [Example 450]
< 1 mg/L

Identify measured MIC associated with O=C(NCCN1CCN(C(=O)NC(C(=O)N[C@H]2Cc3ccc(F)c(C(=O)O)c3OB2O)c2ccc(P(=O)(O)O)cc2)C(=O)C1=O)c1ccc(O)c(O)c1Cl (stereo partly drawn) [Example 120]
< 1 mg/L

Identify measured MIC associated with CS(=O)(=O)N1CCN(C(=O)N[C@@H](C(=O)N[C@H]2Cc3ccc(F)c(C(=O)O)c3OB2O)c2ccc(P(=O)(O)O)c(F)c2)C1=O (single isomer, unassigned) [Example 19]
> 128 mg/L

Identify measured MIC associated with O=C(NCCCN1CCN(C(=O)NC(C(=O)N[C@H]2Cc3ccc(F)c(C(=O)O)c3OB2O)c2cc(F)c(O)c(O)c2Cl)C(=O)C1=O)c1ccc(O)c(F)c1Cl (stereo partly drawn) [Example 418]
< 1 mg/L

Identify measured MIC associated with O=C(NCCCN1CCN(C(=O)NC(C(=O)N[C@H]2Cc3ccc(F)c(C(=O)O)c3OB2O)c2cc(F)c(O)c(O)c2Cl)C(=O)C1=O)c1cc(F)c(F)c(O)c1F (stereo partly drawn) [Example 404]
2 to 4 mg/L

Identify measured MIC associated with O=C(NCCCN1CCN(C(=O)N[C@@H](C(=O)N[C@H]2Cc3ccc(F)c(C(=O)O)c3OB2O)c2cc(F)c(O)c(O)c2Cl)C(=O)C1=O)c1ccncc1 [Example 294]
< 1 mg/L

Identify measured MIC associated with O=C(O)c1c(F)ccc2c1OB(O)[C@@H](NC(=O)[C@@H](NC(=O)N1CCN(Cc3ccc(O)c(O)c3Cl)C(=O)C1=O)c1ccc(P(=O)(O)O)cc1)C2 (single isomer, unassigned) [Example 161]
> 128 mg/L
